# Target Desc: GST-CBP (1081-1197) bromodomain (Homo sapiens, UniProt Q92793)
# Construct: The GST tagged bromodomains of CBP (1081-1197) and BRD4 (49-170) were obtained from BPS Bioscience
# Sequence (Q92793 1081-1197): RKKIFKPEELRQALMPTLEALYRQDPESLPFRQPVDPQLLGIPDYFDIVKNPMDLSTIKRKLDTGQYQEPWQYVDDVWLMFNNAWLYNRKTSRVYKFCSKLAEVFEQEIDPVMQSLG
# Assay Summary: CBP AlphaScreen assay
# Settings: binding to biotin-H4 (1-21) Ac-K5/8/12/16
Provide the reported IC50 of each item.

Lookup: I would be grateful if you could share the reported IC50 for CNC(=O)c1ccc(-c2cc3cccc(-c4nc(C5CC5)n5c4CN(C(C)=O)CC5)c3cn2)cn1 .
Found: 0.015 µM

Lookup: Name the recorded IC50 for CNC(=O)c1ccc(-c2cc3ccc(F)c(-c4nc(C5CCOCC5)n5c4CN(C(C)=O)CC5)c3cn2)cn1 .
Found: 0.034 µM

Lookup: Quick check: IC50 of CC(=O)N1CCn2c(C3CCOCC3)nc(-c3c(F)ccc4cc(-c5cnc(C)s5)ncc34)c2C1 ?
Found: 0.014 µM

Lookup: // returns reported IC50 for input CNC(=O)c1ccc(-c2cc3cccc(-c4nc(C5CCOCC5)n5c4CN(C(C)=O)CC5)c3cn2)cn1
Found: 0.016 µM

Lookup: # lookup: IC50 of CC(=O)N1CCn2c(C3CCOCC3)nc(-c3cccc4cc(-c5cnc(C)s5)ncc34)c2C1
Found: 0.007 µM

Lookup: Any idea what IC50 was measured for CNC(=O)c1ccc(-c2cc3cccc(-c4nc(C56CCC(CC5)OC6)n5c4CN(C(C)=O)CC5)c3cn2)cn1 ?
Found: 0.022 µM

This collection of values is drawn from patent US12559497B2.
